Test system: Pseudomonas aerogenosa X-528
Experiment: Gradient plate in vitro MIC, X528
Type: cell-based
Conditions: Pseudomonas; X528, G-; read-out: minimum inhibitory concentration (MIC)

| molecule | bound sign | MIC, µg/mL |
| --- | --- | --- |
| O=C(O)C=CC1=C(C(=O)O)N2C(=O)C(NC(=O)C(C(=O)O)c3ccccc3)[C@H]2SC1 (stereo partly shown) | = | 29.5 |
| O=C(O)C=CC1=C(C(=O)O)N2C(=O)C(NC(=O)[C@H](O)c3ccccc3)C2SC1 (stereo partly shown) | > | 50 |
| CCOC(=O)C=CC1=C(C(=O)O)N2C(=O)C(NC(=O)C(C(=O)O)c3ccccc3)[C@H]2SC1 (stereo partly shown) | = | 42.2 |
| CCOC(=O)C=CC1=C(C(=O)O)N2C(=O)C(NC(=O)Cc3cccs3)C2SC1 (stereo not shown) | > | 50 |

###

Listing of entries alongside the reported MIC.
System: penicillin-resistant Staphylococcus aureus strain V-41
Assay: Gradient plate in vitro MIC, strain V41
Assay type: cell-based
Settings: V41, G+, read-out: minimum inhibitory concentration (MIC)

| compound | bound sign | MIC / µg/mL |
| --- | --- | --- |
| O=C(O)C=CC1=C(C(=O)O)N2C(=O)C(NC(=O)C(C(=O)O)c3ccccc3)[C@H]2SC1 (stereo partly shown) | > | 20 |
| O=C(O)C=CC1=C(C(=O)O)N2C(=O)C(NC(=O)[C@H](O)c3ccccc3)C2SC1 (stereo partly shown) | > | 20 |
| CCOC(=O)C=CC1=C(C(=O)O)N2C(=O)C(NC(=O)C(C(=O)O)c3ccccc3)[C@H]2SC1 (stereo partly shown) | = | 7.9 |
| CCOC(=O)C=CC1=C(C(=O)O)N2C(=O)C(NC(=O)Cc3cccs3)C2SC1 (stereo not shown) | = | 6.2 |
